ASSAY TARGET: Thyrotropin receptor (Homo sapiens)
Sequence (P16473 whole entry): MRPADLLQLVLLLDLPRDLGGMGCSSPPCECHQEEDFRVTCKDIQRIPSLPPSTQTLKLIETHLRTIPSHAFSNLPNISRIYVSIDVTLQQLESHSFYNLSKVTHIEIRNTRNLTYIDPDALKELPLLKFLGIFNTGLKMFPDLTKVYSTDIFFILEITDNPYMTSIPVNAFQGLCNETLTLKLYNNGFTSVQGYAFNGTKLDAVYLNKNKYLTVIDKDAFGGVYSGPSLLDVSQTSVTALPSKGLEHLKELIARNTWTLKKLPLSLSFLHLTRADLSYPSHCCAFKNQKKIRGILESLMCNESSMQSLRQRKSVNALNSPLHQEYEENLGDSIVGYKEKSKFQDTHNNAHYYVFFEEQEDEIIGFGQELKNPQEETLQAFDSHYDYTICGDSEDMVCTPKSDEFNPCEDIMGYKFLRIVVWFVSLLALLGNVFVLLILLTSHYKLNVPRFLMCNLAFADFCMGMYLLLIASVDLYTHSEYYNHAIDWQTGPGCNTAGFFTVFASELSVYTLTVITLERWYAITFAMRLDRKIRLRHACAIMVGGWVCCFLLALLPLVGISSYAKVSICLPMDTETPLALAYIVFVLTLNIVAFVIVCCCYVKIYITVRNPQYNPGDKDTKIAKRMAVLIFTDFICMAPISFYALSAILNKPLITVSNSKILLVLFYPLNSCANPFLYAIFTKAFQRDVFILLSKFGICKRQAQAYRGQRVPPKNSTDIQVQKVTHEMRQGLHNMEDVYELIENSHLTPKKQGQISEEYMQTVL
Assay type: functional, cell-based, CHO
pIC50: −log10 of the molar value.

[
  {
    "COMPOUND": "CC(=O)N1CCC(C)(c2ccccc2)c2cc(NC(=O)c3ccc(Br)s3)ccc21 (stereo unspecified)",
    "ASSAY TARGET": "Thyrotropin receptor (Homo sapiens)",
    "pIC50": "> 7.00"
  }
]
